- target entity: Proteinase-activated receptor 1 (Homo sapiens, UniProt P25116)
- Sequence (P25116 whole entry): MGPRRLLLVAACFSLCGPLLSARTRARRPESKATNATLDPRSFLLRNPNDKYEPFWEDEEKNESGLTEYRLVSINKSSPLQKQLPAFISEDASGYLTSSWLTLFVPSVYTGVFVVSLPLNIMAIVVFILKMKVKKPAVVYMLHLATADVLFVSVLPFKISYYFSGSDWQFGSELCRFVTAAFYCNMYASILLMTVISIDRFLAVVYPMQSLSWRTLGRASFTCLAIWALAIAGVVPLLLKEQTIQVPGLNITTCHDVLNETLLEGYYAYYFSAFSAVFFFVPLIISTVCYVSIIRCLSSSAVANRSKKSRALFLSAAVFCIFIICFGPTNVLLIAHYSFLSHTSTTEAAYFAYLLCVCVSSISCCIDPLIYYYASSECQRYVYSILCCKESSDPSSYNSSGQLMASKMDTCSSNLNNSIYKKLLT
- assay remarks: Negative allosteric modulation of PAR1 in human EAhy926 cells assessed as reduction in TFLLRN-NH2-induced intracellular calcium mobilization incubated for 15 mins followed by TFLLRN-NH2 addition by Fluo-4-AM dye based fluorescence assay
- Assay type: functional, cell-based
- condition notes: read-out: IC50
Field: IC50. Provide a value for each of the molecules that follow.

[ask] What value of measured IC50 is listed for O=C(CC(F)(F)F)Nc1cccc(NC(=O)c2ccccc2Br)c1 ?
[reply] 0.38 µM

[ask] What value of measured IC50 is listed for O=C(Nc1cccc(NC(=O)c2ccccc2Br)c1)c1cocn1 ?
[reply] 0.42 µM

[ask] What value of measured IC50 is listed for CCCC(=O)Nc1cccc(NC(=O)c2ccccc2Br)c1 ?
[reply] 0.57 µM

[ask] What value of measured IC50 is listed for CCCNC(=O)c1cccc(NC(=O)c2ccccc2Br)c1 ?
[reply] 0.22 µM

[ask] What value of measured IC50 is listed for O=C(Nc1cccc(NC(=O)c2ccccc2Br)c1)c1cnco1 ?
[reply] 0.37 µM

[ask] What value of measured IC50 is listed for O=C(Nc1cccc(NC(=O)c2ccccc2Br)c1)c1ccco1 ?
[reply] 0.32 µM
